# assay.name: Plasma selinexor pharmacokinetics
# Format: in vivo, human
# measurement.parameters: human, plasma, oral, 40 mg/m2
value.kind: AUC(0-t) (ng·h/mL)
Number in ng·h/mL, nothing else.

Prompt: Supply AUC(0-t) value. Item: O=C(/C=C\n1cnc(-c2cc(C(F)(F)F)cc(C(F)(F)F)c2)n1)NNc1cnccn1 [selinexor]
Completion: 5340

###

# assay.name: Plasma selinexor pharmacokinetics
# Assay type: in vivo, human
# measurement.parameters: human, plasma, po, 60 mg/m2
value.kind: Tmax

Prompt: # return recorded Tmax for input O=C(/C=C\n1cnc(-c2cc(C(F)(F)F)cc(C(F)(F)F)c2)n1)NNc1cnccn1 [selinexor]
Completion: 1 to 4 h
